- experiment_summary: in vitro
- measurement_parameters: human, Caco-2
parameter: Papp A→B (×10⁻⁶ cm/s)

• COCCc1ccc(OCC(O)CNC(C)C)cc1 (centres unmarked) [Metoprolol] = 8.74
• OC[C@@H](O)[C@@H](O)[C@H](O)[C@H](O)CO [Mannitol] = 1.81
